Numbers sourced from patent US11535650.

- tgt: T1, human C5 protein (human, UniProt P01031 19-673; P01031 678-1676)
- T1 construct: Natural C5 is made from one precursor and circulates as two disulfide-linked chains; also called complement component C5; purified human C5
- assay_name: competitive fluorescence polarization vs probe R3076, average of two experiments
Starred links: 1 amine or outer side, 2 acyl side, 3 side chain; linkers in the order of their positions; H or OH if unused. Positions of bridges follow the written chain, without caps; N, C: chain ends. Non-standard residues stand in square brackets, D forms with d. No end group written: not given here. mXylyl = bridging moiety between residues (mXylyl(i,j)); Trp(7-aza) = N[C@@H](Cc1c[nH]c2ncccc12)C(=O)O; pXylylene = c1cc(C[*:2])ccc1C[*:1]; Phg = N[C@H](C(=O)O)c1ccccc1; Tle = CC(C)(C)[C@H](N)C(=O)O; NMeS = CN[C@@H](CO)C(=O)O; Nva = CCC[C@H](N)C(=O)O
Answer each item with its documented pKi.
One number for each entry, as −log10 of the molar value.

Field: example entries. Status: answers known.
INSERT INTO results (binder, value_observed) VALUES
  ('Ac-[Nva]C[Phg]T[Trp(7-aza)]EY[NMeS]HC[Nva]P-NH2 (linker 2-10 via mXylyl) [R3011]', 7.10),
  ('Ac-[Nva]CYEN[Tle]Y[Trp(7-aza)]EYP[Phg]P-NH2 (SMILES CCC[C@H](NC(C)=O)C(=O)N[C@@H](CS)C(=O)N[C@@H](Cc1ccc(O)cc1)C(=O)N[C@@H](CCC(=O)O)C(=O)N[C@@H](CC(N)=O)C(=O)N[C@H](C(=O)N[C@@H](Cc1ccc(O)cc1)C(=O)N[C@@H](Cc1c[nH]c2ncccc12)C(=O)N[C@@H](CCC(=O)O)C(=O)N[C@@H](Cc1ccc(O)cc1)C(=O)N1CCC[C@H]1C(=O)N[C@H](C(=O)N1CCC[C@H]1C(N)=O)c1ccccc1)C(C)(C)C) [R3003]', 8.02),
  ('Ac-[Nva]C[Phg]T[Trp(7-aza)]EY[NMeS]HC[Nva]-NH2 (linker 2-10 via pXylylene) [R3050]', 7.19),
  ('MCVERFCDVYWE-NH2 (linker 2-7 via mXylyl) [R3043]', 6.06);

Turning now to a further binder:
QUERY: Respond only with pKi recorded for Ac-C[Phg]T[Trp(7-aza)]EY[NMeS]HC[Nva]P[Nva]-NH2 (linker 1-9 via mXylyl) [R3014]
RESULT: 5.83
